The compounds listed here are annotated with their Efficacy (1%) Median-value.
- Tested on: preretinal neovascularization
- assay: Rat oxygen-induced retinopathy (OIR) model, prevention
- Format: in vivo
- run_conditions: rat OIR prevention, single ivt injection of 1% suspension, vs vehicle; *P<0.05
Could you give me the number in %*? Just the number is fine.

// worked examples, Efficacy (1%) Median-value included
chemical_string=Cc1cc(O)cc(NC(=O)Nc2ccc(-c3cccc4[nH]nc(N)c34)cc2)c1 val=100
chemical_string=COCCOc1ccc(-c2ccc(NC(=O)Nc3cccc(C)c3)cc2)c2c(N)n[nH]c12 val=100
chemical_string=Cc1cccc(NC(=O)Nc2ccc(-c3csc4ccnc(N)c34)cc2)c1 val=100
chemical_string=Cc1cccc(NC(=O)Nc2ccc(-c3csc4ncnc(N)c34)cc2)c1 val=100

Now for another entry.
Input: Would you kindly share the measured Efficacy (1%) Median-value for Cc1cccc(NC(=O)Nc2ccc(-c3cncc4[nH]nc(N)c34)cc2)c1 ?
Output: 100
